Target system: Gr21a/Gr63a CO2 receptor (Gr63a) (Drosophila melanogaster, UniProt Q9VPT1+Q9VZL7)
Construct: with Gr21a
Sequence (Q9VZL7 1-512): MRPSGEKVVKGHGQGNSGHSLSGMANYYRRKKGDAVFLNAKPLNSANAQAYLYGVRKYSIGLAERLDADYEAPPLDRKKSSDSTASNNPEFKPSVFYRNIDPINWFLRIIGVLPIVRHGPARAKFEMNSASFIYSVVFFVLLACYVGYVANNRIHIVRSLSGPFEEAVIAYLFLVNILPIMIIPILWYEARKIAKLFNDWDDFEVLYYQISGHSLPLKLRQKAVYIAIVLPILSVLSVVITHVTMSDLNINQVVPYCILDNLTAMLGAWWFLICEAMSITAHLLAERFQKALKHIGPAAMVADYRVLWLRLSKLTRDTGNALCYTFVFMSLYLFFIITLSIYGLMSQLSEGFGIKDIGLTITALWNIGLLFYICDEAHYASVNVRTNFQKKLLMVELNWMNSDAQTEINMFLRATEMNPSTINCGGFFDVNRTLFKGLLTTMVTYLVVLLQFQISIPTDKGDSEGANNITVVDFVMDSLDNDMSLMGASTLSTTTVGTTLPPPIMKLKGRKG
Sequence (Q9VPT1 1-447): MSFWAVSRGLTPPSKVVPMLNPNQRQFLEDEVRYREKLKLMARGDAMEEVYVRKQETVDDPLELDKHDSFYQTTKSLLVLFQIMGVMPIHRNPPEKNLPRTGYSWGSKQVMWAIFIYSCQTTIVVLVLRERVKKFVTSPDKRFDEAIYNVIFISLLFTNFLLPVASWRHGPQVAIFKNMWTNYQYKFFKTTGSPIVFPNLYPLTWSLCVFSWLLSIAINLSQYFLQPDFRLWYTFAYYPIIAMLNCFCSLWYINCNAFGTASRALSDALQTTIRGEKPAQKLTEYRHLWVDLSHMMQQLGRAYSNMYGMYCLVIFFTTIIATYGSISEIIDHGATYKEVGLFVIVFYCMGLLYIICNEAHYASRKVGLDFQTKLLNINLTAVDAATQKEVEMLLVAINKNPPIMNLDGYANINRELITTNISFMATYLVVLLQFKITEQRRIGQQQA
Assay overview: two-electrode voltage clamp, Xenopus oocytes, block of […] NaHCO3 current
Attribute measured: IC50 (mM)
Numbers only here, please. The scale is mM.

What does the data say about its IC50? Entry: CC(C)=CCCC(C)CCO (stereo not shown) 5.1
